- Protocol text: soluble on expression in E. coli; label from the status in PepcDB or PDB records
Quantity name: soluble on expression in E. coli

Worked set:
Seq string: PFMDQSGGGVTFCGGEPLLHPEFLIDILKRCGQQGIHRAVDTTLLARKETVDEVMRNCELLLIDLKSMDSTVHQTFCDVPNELILKNIRRVAEADFPYYIRIPLIEGVNADEKNIKLSAEFLASLPRHPEIINLLPYHDIGKGKHAKLGSIYNPKGYKMQTPSEEVQQQCIQILTDYGLKATIGG
soluble on expression in E. coli: soluble
--
Seq string: MTEAGASIVVTVKNEGKNLRELLESIEKNDFTNFETVVVDDLSTDDTEDIVKSYRFTVYKRIACSRGEGRNIGVDLSRYGYILFTDGDAKVSEHWISGMVSALAAGNDAVIGNTLYTGKRRYMQERVKIFLEGIEVTAPSVNLAYRKDRFRQLGGFDPKFVTAEDIDLNIRAVKAGFRFATCDSCVVYAKVRENLASFLRQAYWNGYGRYQLEMKHPGITRNTRVRLGHNFFDFLHMVSGAAGYLSARISEGKQGRLEHHHHHH
soluble on expression in E. coli: soluble
--
Seq string: MEERELVEYFRGQIREDPDVASAVAAIRSLLEFLKRDQSETILGLRENMTQAIHRLQEADPSVAVSSGGELFLRFISLTSLEHPDLSQCKNVMIERGELFLKKISLSRGKVGKLCHTFIKDGAKILTHSSSRVVLKVLENAAADNKRFTVKLMAEKLRKLSIPVTVVLDAAVGYILEKVDLVIVGAEGVVESGGVINKIGTYQMAVCSKAHNKPFYVVAESFKFVRLYPLNQQDVPDRFKYKADVLKTAEDLNQEHPLIDYTPSSLITLLFTDLGVLTPSAVSDELIKLYL
soluble on expression in E. coli: soluble
--
Seq string: MTVGGMQPVSIMGKHLNNFERLSILEDYLSGSDSKVAIEQKYGLSHGLIRSWLSKFGLEDKVHPVPMKVSQSPQSELPLNEKEELEQLRKENRVLKSRLKREELGHQAYKLLVELAEETYGIQIRKNSEAK
soluble on expression in E. coli: not soluble
--
Seq string: MGSDKIHHHHHHMSLIHLQADHIRPLVYLHGKVDDHEVAFLEHLNGPPKNAVRVGNTVTFIEHDQTAYSVRAERIQGVLPPAFAGVISDLESGYQFVLGGRSRLAGRPSQLVRIIPNDDNRYSYQVWLDMDTYLPLRYDMLNLEKQLLEQVLVVELIVLDDAPAILREAYKQDWPEIMPQPQREQADNWQFKWLPQGFKILVKDNHRLIGSHEAVEYIALSDGLVNISVYVARAGETALPDELMTRNGLSLAAERVGNAEVVAVGKVPAETLSRIAKSITIE
soluble on expression in E. coli: not soluble

Value of soluble on expression in E. coli reported for the sequence "MQEISFRDDILPLKDKLFRLALRITFDRAEAEDVVQDTMIRVWNKREEWTQFGSIEAYCLTVAKNLAIDRSQKKEAQNVELTPEMEEESEISGPYDQ" is not soluble

Value of soluble on expression in E. coli reported for the sequence "MPVILNFSSERVLSESELEALRHVGRVSQSEQLVVRGRTMRLHHISFMDSFSVEPVSGGLLDRLSARGHRLLAENLEIQLNRGHTFLQAFRLYMEQSRATPCTRQNVSSAIQNKINSHAFTVSHQDFSCHEQHLNCPITLCIPETGVFVRNAKNSEICSLYDHNALTELIRRNAPHPLSREPFVPEMIVSKDECHFNLIEQYFCILATQNICTRI" is not soluble
